Data origin, for the record: patent USRE39591E1

Readings of MIC for the listed compounds
Test system: up to 32 different microorganisms
EXPERIMENT: in vitro antibacterial activity (MIC), agar dilution on Brain Heart Infusion (BHI) agar with Steers replicator
Type: cell-based
CONDITION_DETAILS: organism code II; unit assumed
PROPERTY_MEASURED: MIC (µg/mL)

{"COMPOUND": "CC[C@H]1OC(=O)[C@H](C)C(=O)[C@H](C)[C@@H](O[C@@H]2O[C@H](C)C[C@H](N(C)C)[C@H]2O)[C@@](C)(OCC=NNC(=O)c2ccccc2)C[C@@H](C)C(=O)[C@H](C)[C@H]2NC(=O)O[C@@]21C", "UNIT_ANNOTATION": "µg/mL", "OBSERVED_RESULT": 1.56}
{"COMPOUND": "CC[C@H]1OC(=O)[C@H](C)C(=O)[C@H](C)[C@@H](O[C@@H]2O[C@H](C)C[C@H](N(C)C)[C@H]2O)[C@@](C)(OCC=O)C[C@@H](C)C(=O)[C@H](C)[C@H]2NC(=O)O[C@@]21C", "UNIT_ANNOTATION": "µg/mL", "OBSERVED_RESULT": 0.05}
{"COMPOUND": "CC[C@H]1OC(=O)[C@H](C)C(=O)[C@H](C)[C@@H](O[C@@H]2O[C@H](C)C[C@H](N(C)C)[C@H]2O)[C@@](C)(OCC#Cc2ccc(C(=O)Nc3ccccn3)o2)C[C@@H](C)C(=O)[C@H](C)[C@H]2NC(=O)O[C@@]21C", "UNIT_ANNOTATION": "µg/mL", "OBSERVED_RESULT": 0.02}
{"COMPOUND": "CC[C@H]1OC(=O)[C@H](C)C(=O)[C@H](C)[C@@H](O[C@@H]2O[C@H](C)C[C@H](N(C)C)[C@H]2O)[C@@](C)(OCC(=O)c2ccc(F)cc2)C[C@@H](C)C(=O)[C@H](C)[C@H]2NC(=O)O[C@@]21C", "UNIT_ANNOTATION": "µg/mL", "OBSERVED_RESULT": 0.78}
{"COMPOUND": "CC[C@H]1OC(=O)[C@H](C)C(=O)[C@H](C)[C@@H](O[C@@H]2O[C@H](C)C[C@H](N(C)C)[C@H]2O)[C@@](C)(OCC=NOCc2ccc3ccccc3n2)C[C@@H](C)C(=O)[C@H](C)[C@H]2NC(=O)O[C@@]21C", "UNIT_ANNOTATION": "µg/mL", "OBSERVED_RESULT": 0.02}
{"COMPOUND": "CC[C@H]1OC(=O)[C@H](C)C(=O)[C@H](C)[C@@H](O[C@@H]2O[C@H](C)C[C@H](N(C)C)[C@H]2O)[C@@](C)(OCC=NOCc2ccc([N+](=O)[O-])cc2)C[C@@H](C)C(=O)[C@H](C)[C@H]2NC(=O)O[C@@]21C", "UNIT_ANNOTATION": "µg/mL", "OBSERVED_RESULT": 0.05}
{"COMPOUND": "CC[C@H]1OC(=O)[C@H](C)C(=O)[C@H](C)[C@@H](O[C@@H]2O[C@H](C)C[C@H](N(C)C)[C@H]2O)[C@@](C)(OCCNOCc2ccc([N+](=O)[O-])cc2)C[C@@H](C)C(=O)[C@H](C)[C@H]2NC(=O)O[C@@]21C", "UNIT_ANNOTATION": "µg/mL", "OBSERVED_RESULT": 0.05}
{"COMPOUND": "CCC1OC(=O)C(C)C(=O)C(C)C(OC2OC(C)CC(N(C)C)C2O)C(C)(OCC=Cc2cnc3cccc([N+](=O)[O-])c3c2)CC(C)C(=O)C(C)C2NC(=O)OC12C (centres unmarked)", "UNIT_ANNOTATION": "µg/mL", "OBSERVED_RESULT": 0.02}
{"COMPOUND": "CC[C@H]1OC(=O)[C@H](C)C(=O)[C@H](C)[C@@H](O[C@@H]2O[C@H](C)C[C@H](N(C)C)[C@H]2O)[C@@](C)(OCC#Cc2ccc3ccccc3c2)C[C@@H](C)C(=O)[C@H](C)[C@H]2NC(=O)O[C@@]21C", "UNIT_ANNOTATION": "µg/mL", "OBSERVED_RESULT": 0.1}
{"COMPOUND": "C#CCOC1(C)CC(C)C(=O)C(C)C2NC(=O)OC2(C)C(CC)OC(=O)C(C)C(=O)C(C)C1OC1OC(C)CC(N(C)C)C1O (centres unmarked)", "UNIT_ANNOTATION": "µg/mL", "OBSERVED_RESULT": 0.2}
{"COMPOUND": "CCC1OC(=O)C(C)C(=O)C(C)C(OC2OC(C)CC(N(C)C)C2O)C(C)(OCC=Cc2cnc3ccc(C#N)cc3c2)CC(C)C(=O)C(C)C2NC(=O)OC12C (centres unmarked)", "UNIT_ANNOTATION": "µg/mL", "OBSERVED_RESULT": 0.05}
{"COMPOUND": "CCC(=O)OC1C(OC2C(C)C(=O)C(C)C(=O)OC(CC)C3(C)OC(=O)NC3C(C)C(=O)C(C)CC2(C)OCC=Cc2cnc3ccccc3c2)OC(C)CC1N(C)C (centres unmarked)", "UNIT_ANNOTATION": "µg/mL", "OBSERVED_RESULT": 0.05}
{"COMPOUND": "CC[C@H]1OC(=O)[C@H](C)C(=O)[C@H](C)[C@@H](O[C@@H]2O[C@H](C)C[C@H](N(C)C)[C@H]2O)[C@@](C)(OCC=NOCc2cnc3ccccc3c2)C[C@@H](C)C(=O)[C@H](C)[C@H]2NC(=O)O[C@@]21C", "UNIT_ANNOTATION": "µg/mL", "OBSERVED_RESULT": 0.05}
{"COMPOUND": "CC[C@H]1OC(=O)[C@H](C)C(=O)[C@H](C)[C@@H](O[C@@H]2O[C@H](C)C[C@H](N(C)C)[C@H]2O)[C@@](C)(OCC#CBr)C[C@@H](C)C(=O)[C@H](C)[C@H]2NC(=O)O[C@@]21C", "UNIT_ANNOTATION": "µg/mL", "OBSERVED_RESULT": 0.39}
{"COMPOUND": "CC[C@H]1OC(=O)[C@H](C)C(=O)[C@H](C)[C@@H](O[C@@H]2O[C@H](C)C[C@H](N(C)C)[C@H]2O)[C@@](C)(OCCNCCCc2cnc3ccccc3c2)C[C@@H](C)C(=O)[C@H](C)[C@H]2NC(=O)O[C@@]21C", "UNIT_ANNOTATION": "µg/mL", "OBSERVED_RESULT": 0.05}
{"COMPOUND": "CC[C@H]1OC(=O)[C@H](C)C(=O)[C@H](C)[C@@H](O[C@@H]2O[C@H](C)C[C@H](N(C)C)[C@H]2O)[C@@](C)(OCC=Cc2cnc3ccc(C(=O)O)cc3c2)C[C@@H](C)C(=O)[C@H](C)[C@H]2NC(=O)O[C@@]21C", "UNIT_ANNOTATION": "µg/mL", "OBSERVED_RESULT": 25}
{"COMPOUND": "CCC1OC(=O)C(C)C(=O)C(C)C(OC2OC(C)CC(N(C)C)C2O)C(C)(OCC=Cc2cc(Cl)cc(Cl)c2)CC(C)C(=O)C(C)C2NC(=O)OC12C (centres unmarked)", "UNIT_ANNOTATION": "µg/mL", "OBSERVED_RESULT": 0.05}
